molecular target: Human CCR5 (Homo sapiens, UniProt P51681); construct: expressed in transfected cells; assay: CCR5 membrane binding assay ([I-125]MIP-1α radioligand, membranes of CHO K1 transfectants); settings: membranes of CHO K1 cells transfected with human CCR5; ligand 125-I MIP-1α
Sequence (P51681 whole entry): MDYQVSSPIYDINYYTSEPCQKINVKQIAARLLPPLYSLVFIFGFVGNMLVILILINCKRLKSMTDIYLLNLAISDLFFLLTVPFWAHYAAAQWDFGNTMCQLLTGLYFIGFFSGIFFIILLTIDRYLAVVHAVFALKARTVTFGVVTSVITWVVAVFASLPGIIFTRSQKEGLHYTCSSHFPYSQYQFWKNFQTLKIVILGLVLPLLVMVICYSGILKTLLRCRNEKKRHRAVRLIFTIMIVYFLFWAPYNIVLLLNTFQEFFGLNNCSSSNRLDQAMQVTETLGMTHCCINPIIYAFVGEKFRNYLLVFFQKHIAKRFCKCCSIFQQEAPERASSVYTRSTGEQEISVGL
MEASURED_METRIC: IC50 (nM)
Field format: number, assumed nM, no unit text.

Record Cc1nc(CN(c2ccc(Cl)cc2)C2CCN(C3(C)CCN(C(=O)c4c(C)cccc4C)CC3)CC2)cs1 . Reported IC50: 0.5
